Where do the numbers come from? From patent US10988465B2.

experiment: Mouse brain uptake assay (MBUA), 3 mg/kg IV, 0-24 h, 4 time points; format: in vivo, male CD1 mice; conditions: mouse; fraction unbound to plasma proteins; read-out: Fu (p) %
measure: fraction unbound

{"columns": ["compound", "reading"],
 "data": [
  ["CN1CCN(c2cccc3nc([C@H]4CCC[C@@H](c5ncccc5Cl)N4)[nH]c23)CC1 (racemic) [I-122]", 0.127],
  ["Cc1cccnc1[C@@H]1CCC[C@H](c2nc3cccc(N4CC5CCC(C4)N5C)c3[nH]2)N1C [I-56]", 0.073],
  ["Cc1cccnc1[C@@H]1CCC[C@H](c2nc3cccc(N4CCN(C(C)C)CC4)c3[nH]2)N1 [I-128]", 0.135],
  ["COc1ccnc([C@@H]2CCC[C@H](c3nc4cccc(N5CCN(C)CC5)c4[nH]3)N2C)c1C [I-81]", 0.149]
]}
